Tested on: SEM cells
test: cell viability relative to DMSO control; higher = less cytotoxic
run.conditions: RPMI 5 mM glucose + 10% FBS; 48 h; 0.0211 µM
Here, each record is paired with measured cell viability data.
Number in %, nothing else.

[
  {
    "compound": "Cc1cc(C(=O)N2CCN(c3cccc(Cl)c3)CC2)n(-c2ccccc2)n1",
    "result.number": 122
  }
]

Task item: Entry under review: CCN(C(=O)C/1=C(O)/C2=C(C=CC=C2Cl)N(C)C1=O)C3=CC=CC=C3 . Reported cell viability?
Reply: 97.6

Task item: Then what about the compound N#Cc1ccnc(Nc2cc(C3CCN(C4COC4)CC3)cc(N3CCC(F)(F)C3)n2)c1 ?
Reply: 128

* * *

System: SEM cells
test: cell viability relative to DMSO control; higher = less cytotoxic
run.conditions: RPMI 5 mM glucose + 10% dialyzed FBS; 48 h; 46.1 µM
Classify: Satisfied when cell viability is strictly less than 80%; Not satisfied when cell viability is not.

Example results:
[
  {
    "compound": "O=C(Nc1ncc(-c2cc(C(F)F)nn2-c2c(Cl)cccc2Cl)s1)C1CC1",
    "label": "Satisfied"
  },
  {
    "compound": "COC1=CC=C(C=C1O)C/2=C/C(=O)C3=C(O2)C=C(O)C=C3O",
    "label": "Satisfied"
  },
  {
    "compound": "COc1cc2nc(-c3cc(F)ccc3O)nc(N[C@@H]3CNC[C@H]3C(C)(C)O)c2cc1OC",
    "label": "Satisfied"
  },
  {
    "compound": "CC1(C)CNc2cc(NC(=O)c3cccnc3NCc3ccncc3)ccc21",
    "label": "Satisfied"
  },
  {
    "compound": "CN1C(=O)C[C@H](C(=O)N[C@@H](Cc2cnc[nH]2)C(=O)N2CCC[C@H]2C(N)=O)NC1=O",
    "label": "Satisfied"
  }
]

Task item: Report whether reported cell viability is lower than 80% (strictly) for COc1cc2c(Nc3ccc(Br)cc3F)ncnc2cc1OCC1CCN(C)CC1
Reply: Satisfied

Task item: Then what about the compound CN1c2ccccc2C(=O)N2CCc3c([nH]c4ccccc34)C21 (configuration not stated) ?
Reply: Not satisfied

Task item: Then what about the compound Cc1cccc(CN2CCN(C(c3ccccc3)c3ccc(Cl)cc3)CC2)c1 (configuration not stated) ?
Reply: Not satisfied

Task item: Then what about the compound C[C@]12CC[C@H]3[C@@H](C\C=C/4C[C@@H](O)CC[C@]34C)[C@@H]1CCC2=O ?
Reply: Not satisfied

Task item: Then what about the compound CC[C@@]1(O)C(=O)OCC/2=C1/C=C3\N(CC4=CC5=CC(=CC=C5N=C34)O)C2=O ?
Reply: Satisfied

Task item: Then what about the compound C[C@]12CC[C@H]3[C@@H](CCC/4=C/C(=O)CC[C@]34C)[C@@H]1CC[C@@H]2O ?
Reply: Not satisfied

Task item: Then what about the compound CC(=O)OCCN1C(=O)c2c(C)nc3ccc([S+](=O)([O-])N4CCOCC4)cc3c2C1=O ?
Reply: Not satisfied

Task item: Then what about the compound CNCc1ccc(-c2[nH]c3cc(F)cc4c3c2CCNC4=O)cc1 ?
Reply: Not satisfied

Task item: Then what about the compound Cc1cc(C(=O)N2CCN(c3cccc(Cl)c3)CC2)n(-c2ccccc2)n1 ?
Reply: Satisfied

Task item: Then what about the compound COc1cc([C@H]2Oc3cc([C@H]4Oc5cc(O)cc(O)c5C(=O)[C@@H]4O)ccc3O[C@@H]2CO)ccc1O ?
Reply: Not satisfied

Task item: Then what about the compound COC1=CC=CC(=C1N)\C2=C\C(=O)C3=C(O2)C=CC=C3 ?
Reply: Not satisfied
